Tested on: human and animal plasma
Experiment: Determination of anticoagulatory activity: activated partial thromboplastin time (aPTT) in plasma
Conditions: concentration of test substance which brings about a 1.5-fold extension of the aPTT; plasma in vitro, C.K. Prest kit
Counter-ions that a name gives are not always drawn.
aPTT vs 0.2 µmol/L: less than gives 1; not less than gives 0.

# Compound, Group
measured = [
    ("CNC(=O)c1ccc(F)c(-c2cccc(C[C@H](NC(=O)[C@H]3CC[C@H](CN)CC3)C(=O)Nc3ccc(-c4nnn[nH]4)cc3)c2)c1 [Example 62, hydrochloride]", 0),
    ("CN1CCN(C(=O)c2cccc(-c3cccc(C[C@H](NC(=O)[C@H]4CC[C@H](CN)CC4)C(=O)Nc4ccc(-c5nnn[nH]5)cc4)c3)c2)CC1 [Example 31, hydrochloride]", 0),
    ("CCN(CC)CCNC(=O)c1cccc(-c2cccc(C[C@H](NC(=O)[C@H]3CC[C@H](CN)CC3)C(=O)Nc3ccc(-c4nnc(Cl)[nH]4)cc3)c2)c1 [Example 40, hydrochloride]", 1),
    ("CC(=O)Nc1ccc(Cl)c(-c2cccc(C[C@H](NC(=O)[C@H]3CC[C@H](CN)CC3)C(=O)Nc3ccc(-c4nnn[nH]4)cc3)c2)c1 [Example 86, hydrochloride]", 0),
    ("COc1ccc(C[C@H](NC(=O)[C@H]2CC[C@H](CN)CC2)C(=O)Nc2ccc(-c3nn[nH]n3)cc2)cc1-c1ccc(C(=O)N[C@@H]2CCNC2)cc1C [Example 57, hydrochloride]", 0),
    ("COCc1nnc(-c2ccc(NC(=O)[C@H](Cc3cccc(-c4cccc5ncccc45)c3)NC(=O)[C@H]3CC[C@H](CN)CC3)cc2)[nH]1 [Example 105, hydrochloride]", 1),
    ("NC[C@H]1CC[C@H](C(=O)N[C@@H](Cc2cccc(-c3cnccc3Cl)c2)C(=O)Nc2ccc(-c3noc(=O)[nH]3)cc2)CC1 [Example 107, hydrochloride]", 0),
    ("NC[C@H]1CC[C@H](C(=O)N[C@@H](Cc2cccc(-c3cccc(C(=O)N4CCOCC4)c3)c2)C(=O)Nc2ccc(-c3nnn[nH]3)cc2)CC1 [Example 47, hydrochloride]", 0),
]

is_below(aPTT, 0.2 µmol/L) for CN(C)CCCOc1ccc(-c2cccc(C[C@H](NC(=O)[C@H]3CC[C@H](CN)CC3)C(=O)Nc3ccc(-c4nc(C(F)(F)C(F)(F)C(F)(F)C(=O)O)n[nH]4)cc3)c2)cn1 [Example 108, hydrochloride] ?
0

----------
Target: human factor XIa (Homo sapiens, UniProt P03951)
Sequence (P03951 388-625 limits assumed): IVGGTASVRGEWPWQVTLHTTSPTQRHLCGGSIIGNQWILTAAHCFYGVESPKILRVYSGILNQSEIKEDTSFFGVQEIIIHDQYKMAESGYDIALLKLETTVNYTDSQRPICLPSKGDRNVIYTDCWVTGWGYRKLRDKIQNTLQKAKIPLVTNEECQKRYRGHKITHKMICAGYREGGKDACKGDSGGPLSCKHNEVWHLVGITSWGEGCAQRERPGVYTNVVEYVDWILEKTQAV
Sequence (P03951 19-387 partner limits assumed): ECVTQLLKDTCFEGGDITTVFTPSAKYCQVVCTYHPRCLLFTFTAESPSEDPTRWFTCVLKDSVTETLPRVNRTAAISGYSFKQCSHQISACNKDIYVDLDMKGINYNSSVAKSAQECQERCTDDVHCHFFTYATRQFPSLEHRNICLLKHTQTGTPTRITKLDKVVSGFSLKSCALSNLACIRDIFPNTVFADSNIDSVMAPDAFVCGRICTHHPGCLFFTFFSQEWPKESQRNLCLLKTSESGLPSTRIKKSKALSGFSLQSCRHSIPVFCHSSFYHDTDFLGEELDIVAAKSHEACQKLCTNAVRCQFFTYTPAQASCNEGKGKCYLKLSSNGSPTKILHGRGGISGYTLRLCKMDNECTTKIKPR
Where a name gives a salt, the structure may show the parent alone.
Measured endpoint: IC50 (nM)
Please state the figure in nM; there is no need to write the unit.

# Compound, Measured endpoint, Data value
records = [
    ("Cc1ccc(C(=O)NC2CCNCC2)cc1-c1cccc(C[C@H](NC(=O)[C@H]2CC[C@H](CN)CC2)C(=O)Nc2ccc(-c3nnn[nH]3)cc2)c1 [Example 14, hydrochloride]", "IC50", 4.8),
]

IC50 of CN(C)c1ncc(-c2cccc(C[C@H](NC(=O)[C@H]3CC[C@H](CN)CC3)C(=O)Nc3ccc(-c4nnn[nH]4)cc3)c2)c(OCc2ccccc2)n1 [Example 78, hydrochloride] on human factor XIa (Homo sapiens, UniProt P03951)?
2.3

Item: NC[C@H]1CC[C@H](C(=O)N[C@@H](Cc2cccc(-c3cnc(N4CCOCC4)nc3)c2)C(=O)Nc2ccc(-c3nnn[nH]3)cc2)CC1 [Example 74, hydrochloride]
2.1

----------
Test system: human and animal plasma
Assay: Determination of anticoagulatory activity: activated partial thromboplastin time (aPTT) in plasma
Conditions: concentration of test substance which brings about a 1.5-fold extension of the aPTT; plasma in vitro, C.K. Prest kit
Counter-ions that a name gives are not always drawn.
aPTT strictly less than 0.2 µmol/L = Y. Otherwise N.

# Molecule, Group
measured = [
    ("Cc1ccc(S(=O)(=O)N2CCCC2)cc1-c1cccc(C[C@H](NC(=O)[C@H]2CC[C@H](CN)CC2)C(=O)Nc2ccc(-c3nnn[nH]3)cc2)c1 [Example 2, hydrochloride]", "Y"),
    ("CN1CCN(C(=O)c2cccc(-c3cccc(C[C@H](NC(=O)[C@H]4CC[C@H](CN)CC4)C(=O)Nc4ccc(-c5nnc(Cl)[nH]5)cc4)c3)c2)CC1 [Example 24, hydrochloride]", "Y"),
]

hey, is aPTT for Cc1ccc(C(=O)NCCOCCOCCO)cc1-c1cccc(C[C@H](NC(=O)[C@H]2CC[C@H](CN)CC2)C(=O)Nc2ccc(-c3nnn[nH]3)cc2)c1 [Example 21, hydrochloride] lower than 0.2 µmol/L or not?
Y

Next molecule up: CC(C)N1CCC(NC(=O)c2cccc(-c3cccc(C[C@H](NC(=O)[C@H]4CC[C@H](CN)CC4)C(=O)Nc4ccc(-c5nnc(Cl)[nH]5)cc4)c3)c2)CC1 [Example 30, hydrochloride]
N

How about this molecule: Cc1nc(N)ncc1-c1cccc(C[C@H](NC(=O)[C@H]2CC[C@H](CN)CC2)C(=O)Nc2ccc(-c3nnn[nH]3)cc2)c1 [Example 95, hydrochloride]
N

----------
Where a name gives a salt, the structure may show the parent alone.
Here's what we have: pIC50 numbers for UniProt P03951.
Note: pIC50 values are expressed as the negative base-10 logarithm of concentration in M.

Some compounds with known pIC50 results, for comparison:
# Compound, pIC50
data = [
    ("CN(C)CCCOc1ccc(-c2cccc(C[C@H](NC(=O)[C@H]3CC[C@H](CN)CC3)C(=O)Nc3ccc(-c4nc(C(F)(F)C(F)(F)C(F)(F)C(=O)O)n[nH]4)cc3)c2)cn1 [Example 108, hydrochloride]", 8.26),
    ("NC[C@H]1CC[C@H](C(=O)N[C@@H](Cc2cccc(-c3cnc(N)nc3)c2)C(=O)Nc2ccc(-c3nnn[nH]3)cc2)CC1 [Example 79, hydrochloride]", 8.64),
    ("CCN(CC)CCNC(=O)c1ccc(-c2cccc(C[C@H](NC(=O)[C@H]3CC[C@H](CN)CC3)C(=O)Nc3ccc4cn[nH]c4c3)c2)cc1 [Example 53, hydrochloride]", 7.77),
]

Data request, read-out pIC50, for NC[C@H]1CC[C@H](C(=O)N[C@@H](Cc2cccc(-c3cnc(N4CCNCC4)nc3)c2)C(=O)Nc2ccc(-c3nnn[nH]3)cc2)CC1 [Example 68, hydrochloride]
8.14

Same question for CN(C)c1ncc(-c2cccc(C[C@H](NC(=O)[C@H]3CC[C@H](CN)CC3)C(=O)Nc3ccc(-c4nnc(Cl)[nH]4)cc3)c2)cn1 [Example 93, hydrochloride] please.
8.28

----------
System: human and animal plasma
Experiment: Determination of anticoagulatory activity: activated partial thromboplastin time (aPTT) in plasma
Settings: concentration of test substance which brings about a 1.5-fold extension of the aPTT; plasma in vitro, C.K. Prest kit
Structures can show the parent of a compound that is named as a salt.
aPTT for assorted compounds
Write the number in µmol/L without appending the unit.

Example entries begin here.
# Compound, Measured endpoint, Data value
rows = [
    ("NC[C@H]1CC[C@H](C(=O)N[C@@H](Cc2cccc(-c3cnc(N4CCNCC4)nc3)c2)C(=O)Nc2ccc3[nH]c(=O)[nH]c3c2)CC1 [Example 67, hydrochloride]", "aPTT", 0.15),
    ("COCCOCCOCCNC(=O)c1ccc(C)c(-c2cccc(C[C@H](NC(=O)[C@H]3CC[C@H](CN)CC3)C(=O)Nc3ccc(-c4nnn[nH]4)cc3)c2)c1 [Example 20, hydrochloride]", "aPTT", 0.24),
    ("Cc1ccc(S(=O)(=O)N2CCCC2)cc1-c1cccc(C[C@H](NC(=O)[C@H]2CC[C@H](CN)CC2)C(=O)Nc2ccc(-c3noc(=O)[nH]3)cc2)c1 [Example 36, hydrochloride]", "aPTT", 0.12),
    ("COCCOCCOCCNC(=O)c1ccc(-c2cccc(C[C@H](NC(=O)[C@H]3CC[C@H](CN)CC3)C(=O)Nc3ccc(-c4nnn[nH]4)cc3)c2)c(C)c1 [Example 22, hydrochloride]", "aPTT", 0.34),
    ("Cc1cc(N)ccc1-c1cccc(C[C@H](NC(=O)[C@H]2CC[C@H](CN)CC2)C(=O)Nc2ccc(-c3nnn[nH]3)cc2)c1 [Example 97, hydrochloride]", "aPTT", 0.12),
]

If you can, please state the reported aPTT value of Cc1ccc(C(=O)NC2C3CNCC32)cc1-c1cccc(C[C@H](NC(=O)C2CCC(CN)CC2)C(=O)Nc2ccc(-c3nnn[nH]3)cc2)c1 (some centres unmarked) [Example 16, hydrochloride] .
0.25

Same read-out for NC[C@H]1CC[C@H](C(=O)N[C@@H](Cc2cccc(-c3ccccc3S(=O)(=O)N3CCOCC3)c2)C(=O)Nc2ccc(-c3nn[nH]n3)cc2)CC1 [Example 54, hydrochloride] ?
0.28

Next: Cc1nc(O)ccc1-c1cccc(C[C@H](NC(=O)[C@H]2CC[C@H](CN)CC2)C(=O)Nc2ccc(-c3nnn[nH]3)cc2)c1 [Example 98, hydrochloride]
0.2

And the next one, CN(C)c1ncc(-c2cccc(C[C@H](NC(=O)[C@H]3CC[C@H](CN)CC3)C(=O)Nc3ccc(-c4nnn[nH]4)cc3)c2)cn1 [Example 70, hydrochloride] ?
0.36

Further, for Cc1ccc(S(=O)(=O)N2CCOCC2)cc1-c1cccc(C[C@H](NC(=O)[C@H]2CC[C@H](CN)CC2)C(=O)Nc2ccc(-c3n[nH]c(=O)[nH]3)cc2)c1 [Example 9, hydrochloride] ?
0.14

Also need NC[C@H]1CC[C@H](C(=O)N[C@@H](Cc2cccc(-c3ccc(C(=O)NCCN4CCCC4)cc3)c2)C(=O)Nc2ccc(-c3nnn[nH]3)cc2)CC1 [Example 41, hydrochloride] , thanks.
0.32
